- EXPERIMENT NOTES: protease stability score; higher = more stable; yeast display proteolysis, trypsin and chymotrypsin;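 also: log10 excess protease needed over predicted unfolded state with 0 meaning unfolded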
Overview of reported protease stability score across a group of sequences:
Give your answer as a number; write no unit.

Example sequences with recorded protease stability score:
Req: For the sequence shown here, "DEKALNHANKMLEAYETGNEKQVADQVDKDVRVEIGDKFYHGRENLRERMKKLMKEARFRITVKSVKVQGDQAKIDAEVTHTHNGQPRKRHMSMTVDVQGDKIKQVHVQYHG" , give the reported protease stability score.
Resp: 0.523

Req: For the sequence shown here, "DEEERRKAHELVKHNDWDKLMKNAPPDVTARIGDRTVHGMEEQVRIEHNMLRRVDENQLHSVDNSGNQLVVTLHVQINGRRFKFTVKIVIHNGQVTTVKVQARDEKEKRKLTELMG" , give the reported protease stability score.
Resp: 0.566

Req: For the sequence shown here, "DRERRHEFATEVVENLKQGDWKRLVEQADKDVTADIGDTKYKGRETFSKWAQQFVRRVDRVEIVDMRLDGDEVRINMDVKHNGQTRRSVFIARWHNGRIKHFRIETG" , give the reported protease stability score.
Resp: 1.62

Req: For the sequence shown here, "DKKLNKQMEEWVQAVNTGDSEQLEDLVDPNVRLEVGDKQFHGREEVRRQQTKKIEEIRLHLDLKDVKAENGHAQLDVNVEFEHNGQPNSNRRTLNAVVHNGKIKHLSDKTDP" , give the reported protease stability score.
Resp: -0.347

---
Req: For the sequence shown here, "DEEEWKELNKEISRIDQHGDERDLARLVDENAKIQIGDKTIRGREDLEKQFDRLRDRFDHIQVQHVENQGDKIRVEVVQRHNGRDETHVKTVKLENGRIKHMEMQHK" , give the reported protease stability score.
Resp: -0.186

Req: For the sequence shown here, "EEKNRKVFEEAMKAFQTNDKDQAERMFDENATVKIGDQEIHGNKQIREHIRTMEEHMRLEIKSIDLKVSNGRVHANITFVEEHNGEPKTLRLHVRAEVDNGTIESMQFNDDG" , give the reported protease stability score.
Resp: 0.159

Req: For the sequence shown here, "DDDARRVINDALEAMNSNNESQLAHLFDPNATFEVGDREIHGRDDFREWVRQMQEEMRFSVSVRDVQERPNHVKFDVEYEEEKNGNPDKHRAVLKARARNGKITELKLDNHK" , give the reported protease stability score.
Resp: 0.075

Req: For the sequence shown here, "DEHLHKAVNQLWHAIKTNDPDKVQELADPNVRIQVGDKEIHGREEFAHQVRRTREQMRVRIDIKQVDVQGNKVDIEYDYEYNVNGQPRSDRVTAVFVLHNGKVQRMHIHISEEQLRQQEK" , give the reported protease stability score.
Resp: 0.886

Req: For the sequence shown here, "EDDVKRKQETWLKAVEDNNPEEAEEQADKHVQVVIGDKRIRGMEEMAHFIEHERRQADIRIQDYRISARGDKVRANISMHFNVNGTPEQASIKIQVTLSNGKIRKMVFRFDDQEFRRIQS" , give the reported protease stability score.
Resp: 1.1

Req: For the sequence shown here, "DDEAMKQFRHWVEAYTTGDSQRLRELVDPNATVRVGDKTYTGMEDIAKNIHQQVRRQRFHVELKRVNNQPNRIEVDLDVTFNVNGKPIRIRLRMQAEMHNGRFKYIEVRFDPDEQRKLES" , give the reported protease stability score.
Resp: 0.861

Req: For the sequence shown here, "DERDAETWTRMLEAVEYNNPEEVRKNADPNANFVYGNKTITGREQYAEEMKKEMDDMRKHVKIDDYHVEGDNIHVSAKFEWEVNGTPVRDTVSVQFVAENGKVRSVQYRFDPDSERKEDQ" , give the reported protease stability score.
Resp: -0.641
